Target: T1, full-length human GIPR with an N-terminal FLAG tag, overexpressed on HEK-293T cells (human, UniProt P48546 22-466)
T1 sequence (looked up): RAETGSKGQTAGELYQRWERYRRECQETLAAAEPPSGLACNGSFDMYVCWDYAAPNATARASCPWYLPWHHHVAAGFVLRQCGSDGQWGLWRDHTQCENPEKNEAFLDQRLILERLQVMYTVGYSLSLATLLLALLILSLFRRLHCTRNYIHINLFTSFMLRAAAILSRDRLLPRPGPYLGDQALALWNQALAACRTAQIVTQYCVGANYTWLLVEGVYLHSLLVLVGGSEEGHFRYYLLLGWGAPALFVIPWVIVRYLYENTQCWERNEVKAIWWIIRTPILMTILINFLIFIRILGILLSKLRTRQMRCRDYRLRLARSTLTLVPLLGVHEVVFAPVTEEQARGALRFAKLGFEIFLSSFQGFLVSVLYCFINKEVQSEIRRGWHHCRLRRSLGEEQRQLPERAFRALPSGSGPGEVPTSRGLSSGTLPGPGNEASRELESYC
Experiment: cell-based or functional assay
Starred links: 1 amine or outer side, 2 acyl side, 3 side chain; linkers in the order of their positions; H or OH if unused. Non-standard residues stand in square brackets, D forms with d. Groups on a side chain read outwards from the residue. No end group written: not given here. *: point of attachment. C18 diacid = O=C(O)CCCCCCCCCCCCCCCCC(=O)*; γGlu = O=C(O)[C@H](CCC(=O)[*:2])N[*:1]; NMeY = CN[C@@H](Cc1ccc(O)cc1)C(=O)O; AEEA = NCCOCCOCC(=O)O; Aib = CC(C)(N)C(=O)O
quantityKind: Human GIPR cAMP EC50, HEK293T

YXEGTFISDYSIAXDKAAQAXFVEWLLAQRG (N-terminus H; Aib at 2, 14; Km at 21 = Lys(2OEGgEgE-C18DA); C-terminus OH) [Compound No. 158] = 0.5 pM
[NMeY][Aib]EGTFISDYSI[Aib]LDR[Aib]AQAK([AEEA-AEEA-γGlu-γGlu-C18 diacid])FVNWLLAQRG-OH [Compound No. 215] = 0.5 pM
YXEGTFISDYSIAXDRIAQRNFVEWLLAQSPG (N-terminal Me (Me-Tyr 1); Aib at 2; Km at 14 = Lys(G5-C18DA); C-terminus OH) [Compound No. 180] = 0.9 pM
[NMeY][Aib]EGTFISDYSIALDR[Aib]K([AEEA-AEEA-γGlu-γGlu-C18 diacid])Q[Aib]NFVNWLLAQSPSSGAPPPS-NH2 [Compound No. 293] = 0.4 pM

Reported Human GIPR cAMP EC50, HEK293T for [NMeY][Aib]EGTFISDYSI[Aib]LDR[Aib]AQ[Aib]K([AEEA-AEEA-γGlu-γGlu-C18 diacid])FVNWLLAQRG-NH2 [Compound No. 204] : what is it?
0.3 pM
